Assay: Toxicity in Wistar rat erythrocytes assessed as hemolysis at 50 uM after 1 hr
Assay type: cell-based, Erythrocyte
Conditions: read-out: Activity
measure: hemolysis at 1 h, 50 µM (%)

[[record]]
compound = "COc1cccc2c1C(=O)c1c(O)c3c(c(O)c1C2=O)C[C@@](O)(C(=O)CO)C[C@@H]3O[C@H]1C[C@H](N)[C@H](O)[C@H](C)O1 [DOXORUBICIN]"
measure = "hemolysis at 1 h, 50 µM"
measurement = 2

[[record]]
compound = "C[C@@H]1O[C@@H](OCc2cc(O)c3c(c2)C(=O)c2cccc(O)c2C3=O)C[C@H](N)[C@H]1O"
measure = "hemolysis at 1 h, 50 µM"
measurement = 3

[[record]]
compound = "O=C1c2cccc(O)c2C(=O)c2c(O)cc(CO)cc21 [ALOE-EMODIN]"
measure = "hemolysis at 1 h, 50 µM"
measurement = 0

